Sourced from ChEMBL document CHEMBL1126562

method notes: Partition coefficient (logP)
Type: physicochemical
condition set: octanol/water
readout name: logP
Please respond with just the number, no unit label.

Data request: GET /values?readout=logP&item= CCCCN1CCC(COC(=O)c2cc(Cl)c(N)c3c2OCCO3)CC1
Data returned: 4.86

* * *

target or system: UniProtKB P28221
Sequence (P28221 whole entry): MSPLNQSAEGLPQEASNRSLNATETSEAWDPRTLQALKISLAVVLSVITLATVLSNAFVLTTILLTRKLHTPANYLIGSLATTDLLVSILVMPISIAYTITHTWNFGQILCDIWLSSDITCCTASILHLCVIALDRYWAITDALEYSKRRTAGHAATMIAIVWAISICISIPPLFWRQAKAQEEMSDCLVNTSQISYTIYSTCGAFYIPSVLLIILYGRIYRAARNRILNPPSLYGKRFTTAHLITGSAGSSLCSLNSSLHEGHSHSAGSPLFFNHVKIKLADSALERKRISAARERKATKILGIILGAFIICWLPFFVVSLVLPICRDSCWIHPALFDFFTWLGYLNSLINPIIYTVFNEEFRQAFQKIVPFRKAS
pKi: −log10 of the molar value.
readout name: pKi

Data request: Returns the measured pKi for the input compound. Input: CCCCN1CCC(COC(=O)c2cc(Cl)c(N)c3c2OCCO3)CC1
Data returned: < 5.00

* * *

method notes: Acid dissociation constant was determined
Format: ADME
readout name: pKa
Response field accepts a number only; no unit should be typed.

Data request: Please look up its pKa: CCCCN1CCC(COC(=O)c2cc(Cl)c(N)c3c2OCCO3)CC1
Data returned: 10.4

* * *

target or system: 5-hydroxytryptamine receptor 4 (Cavia porcellus, UniProt O70528)
Sequence (O70528 whole entry): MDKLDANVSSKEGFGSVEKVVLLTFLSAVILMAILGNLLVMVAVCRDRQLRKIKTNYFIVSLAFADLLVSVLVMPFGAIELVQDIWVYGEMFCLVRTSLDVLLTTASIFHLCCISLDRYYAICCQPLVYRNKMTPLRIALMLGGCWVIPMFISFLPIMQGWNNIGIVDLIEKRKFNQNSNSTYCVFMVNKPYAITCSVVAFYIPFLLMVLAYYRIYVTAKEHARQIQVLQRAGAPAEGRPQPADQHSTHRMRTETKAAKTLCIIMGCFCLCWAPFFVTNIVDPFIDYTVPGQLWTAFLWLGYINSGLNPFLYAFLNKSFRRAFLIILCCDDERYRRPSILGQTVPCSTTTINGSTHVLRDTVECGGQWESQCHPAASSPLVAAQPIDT
method notes: Inhibition of 5-HT-evoked 5-HT4 receptor-mediated contractions in the guinea pig distal colon longitudinal muscle myenteric plexus (LMMP)
Recorded IC50 for the following molecules
The reply should consist of the numeric value with the unit placed after it.

1. CCCCN1CCC(COC(=O)c2cccc3c2OCCCO3)CC1 : 0.0501 µM
2. CCCCN1CCC(COC(=O)c2cc(Cl)c(N)c3c2OCCO3)CC1 : 0.0001 µM
3. CN1[C@@H]2CC[C@H]1C[C@@H](OC(=O)c1c[nH]c3ccccc13)C2 : 3.16 µM
4. CCCCN1CCC(COC(=O)c2cccc3c2OCCO3)CC1 : 0.00631 µM
5. CCCCN1CCC(CNC(=O)c2cc(Cl)c(N)cc2OC)CC1 : 0.01 µM
6. CCCCN1CCC(COC(=O)c2cccc3c2OCO3)CC1 : 0.0631 µM

Data request: Quick one: IC50 for CCCCN1CCC(COC(=O)c2cc(Cl)c(N)cc2OC)CC1 ?
Data returned: 0.001 µM

Data request: Next molecule up: CCN(CC)CCOC(=O)c1cc(Cl)c(N)cc1OC
Data returned: 0.251 µM

* * *

target or system: UniProt:P14416
Sequence (P14416 whole entry): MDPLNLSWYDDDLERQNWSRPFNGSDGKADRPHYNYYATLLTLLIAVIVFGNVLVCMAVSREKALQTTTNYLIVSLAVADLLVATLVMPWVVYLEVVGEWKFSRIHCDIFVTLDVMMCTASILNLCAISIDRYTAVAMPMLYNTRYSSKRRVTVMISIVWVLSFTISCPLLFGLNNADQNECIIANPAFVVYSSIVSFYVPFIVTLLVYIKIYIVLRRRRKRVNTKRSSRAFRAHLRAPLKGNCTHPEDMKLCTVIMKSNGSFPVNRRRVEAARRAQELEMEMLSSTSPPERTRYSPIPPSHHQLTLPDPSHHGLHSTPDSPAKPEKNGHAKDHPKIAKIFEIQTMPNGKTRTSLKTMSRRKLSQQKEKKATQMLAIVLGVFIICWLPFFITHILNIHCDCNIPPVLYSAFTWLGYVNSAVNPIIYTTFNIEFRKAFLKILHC
method notes: Tested against dopamine receptor D2 using cloned human receptor expressed in CHO cells radiolabeled with [125I]iodosulpiride
readout name: Ki

Data request: For CCCCN1CCC(COC(=O)c2cc(Cl)c(N)c3c2OCCO3)CC1 , what is its reported Ki?
Data returned: > 10 µM

* * *

target or system: 5-hydroxytryptamine receptor 2C (Homo sapiens)
Sequence (P28335 whole entry): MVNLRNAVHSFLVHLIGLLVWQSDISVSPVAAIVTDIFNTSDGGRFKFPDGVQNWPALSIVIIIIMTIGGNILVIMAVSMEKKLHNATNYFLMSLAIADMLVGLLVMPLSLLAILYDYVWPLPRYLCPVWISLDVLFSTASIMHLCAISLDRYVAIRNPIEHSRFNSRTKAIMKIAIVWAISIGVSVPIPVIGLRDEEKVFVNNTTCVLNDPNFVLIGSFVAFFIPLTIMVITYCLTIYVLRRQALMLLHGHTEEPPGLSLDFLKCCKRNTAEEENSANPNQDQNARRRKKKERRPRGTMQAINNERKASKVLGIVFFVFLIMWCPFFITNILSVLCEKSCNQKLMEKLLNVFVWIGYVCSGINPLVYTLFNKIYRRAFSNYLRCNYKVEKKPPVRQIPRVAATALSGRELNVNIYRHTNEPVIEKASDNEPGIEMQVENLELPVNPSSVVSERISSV
method notes: Tested agains t5-hydroxytryptamine 2C receptor in experiment 1
readout name: pKi
Keep it numeric: pKi is minus log10 of the concentration in mol/L.

Data request: Endpoint output: pKi of CCCCN1CCC(COC(=O)c2cc(Cl)c(N)c3c2OCCO3)CC1 . Value?
Data returned: 6.90
